Values from patent US12398154B2

target: KRas G12R (Homo sapiens, UniProt P01116, G12R); assay: biochemical;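 also: TR-FRET displacement assay of compound binding to KRas, read after one hour at room temperature, potency from a four-parameter fit of percent-of-control values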
Sequence (P01116 1-169 isoform P01116-2 G12R): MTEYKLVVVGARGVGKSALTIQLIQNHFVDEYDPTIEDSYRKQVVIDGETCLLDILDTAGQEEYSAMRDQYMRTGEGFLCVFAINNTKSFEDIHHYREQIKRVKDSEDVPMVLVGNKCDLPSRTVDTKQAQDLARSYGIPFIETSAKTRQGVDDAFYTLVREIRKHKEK
propertyLabel: IC50 (nM)

a: OCC1CCCCN(c2nc(OCC34CCCN3CCC4)nc3c(F)c(-c4cccc5cccc(F)c45)ncc23)C1 (stereo not drawn)
b: O=C1NC[C@]2(CCCN(c3nc(OC[C@@]45CCCN4C[C@H](F)C5)nc4c(F)c(-c5cc(O)cc6ccc(F)c(Cl)c56)ncc34)C2)N1
Lookup: For the two items a and b , which reports the higher IC50 value? Bench note: the answer is the label of the chosen record.
Found: a
(a: 18300 nM, b: 3 nM)

* * *

system: pERK in MKN1 cells; assay: Inhibition of KRas phosphorylation of ERK (Cisbio HTRF pERK assay); conditions: Homo sapiens, MKN-1, 3 h, read-out: Inhibition (HTRF IC50) of KRas-mediated Phosphorylation of ERK, MKN1
pIC50: −log10 of the molar value.
propertyLabel: pIC50

1: CCc1c(F)ccc2cc(O)cc(-c3ncc4c(N5CCC[C@@](C)(O)C5)nc(OC[C@@]56CCCN5[C@@H](CO)CC6)nc4c3F)c12 [Example 301]
2: CCc1c(F)ccc2cc(O)cc(-c3ncc4c(N5CCC[C@@](C)(O)C5)nc(OC[C@]56CCCN5[C@H](CO)CC6)nc4c3F)c12 [Example 302]
Lookup: For the two items 1 and 2 , which reports the higher pIC50 value? Bench note: the answer is the label of the chosen record.
Found: 2
